Test system: K4 kissing-loop RNA reporter;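 further: bound reporter read as fluorescence of individual clusters on recovered sequencing chips by microscopy, with normalized cluster intensities fitted with a binding model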
Assay: apparent KD of K4 kissing-loop reporter; higher = weaker reporter binding
Settings: Eterna round: R107; input ligand: none
Item-by-item account of apparent KD of K4 kissing-loop reporter

[
  {
    "Sequence code": "CGCGCGGGUUGAGAGGUUCGCGCGAAUGAUACCAGUAUAUAAGAAUACCCUUGGCAGCAUAAGAAAGAUAUAGUGAUGUUGUAUA [SSTheophA.G]",
    "apparent KD of K4 kissing-loop reporter, nM": 262
  },
  {
    "Sequence code": "GAUGUAGAGGCGGCCGCCACUAGUGAUGUUAGUGAUGUUUGAUACUGUAUAUAUCGGCGUGUAGAUAGGACCGGGCCUGAUGGAG [dbbdmullin]",
    "apparent KD of K4 kissing-loop reporter, nM": 214
  },
  {
    "Sequence code": "AGUGAGUGAUGUUCACUGUACGUGUCUGAAGGAGCGACAUCGAUGUCAGGUAGGUCGCAGACAUGUCAUCUAUGGUGCGUGACCA [Arg A SS t10]",
    "apparent KD of K4 kissing-loop reporter, nM": 129
  },
  {
    "Sequence code": "CGAAUGGAACUAUUGAACAUUUGUAUUGGCAAGGAUAUCGGGCUAUCGAGAAGGUGCUAUUUGGGCAGUGAUGUUGCCGAUUUAA [theeternabot_sameState_KL_FMN_A_10]",
    "apparent KD of K4 kissing-loop reporter, nM": 54.1
  },
  {
    "Sequence code": "AGACGUUUGGGAAGGAGCGGAAUGUAAUACGGAACGCGUGGAGGUGCAGUGAUGUUGCAGAUCCAGGUAGGUCGCCCAAGGGACG [Esenraerve]",
    "apparent KD of K4 kissing-loop reporter, nM": 99.1
  },
  {
    "Sequence code": "ACGUGCACCAGUGAUGUUGGAAAAUAUGAAGGAGCGGGAGAAAGCCCAGGUAGGUCGCAUAAUAGCACGAGCCACGAAAGUGGCA",
    "apparent KD of K4 kissing-loop reporter, nM": 178
  }
]

---

System: MS2 coat protein
Assay: apparent KD of MS2 coat protein; designed switch direction (-1 OFF switch, 1 ON switch): -1; higher = weaker reporter binding
Settings: input ligand: microRNA oligo, concentration not stated
Short version: apparent KD of MS2 coat protein at least 40 nM is y, less is n.

[
  {
    "Sequence code": "AAAAAACAUGAGGAUCACCCAUGUGAGGAUAUGAUGCGAAUAAAGAAAGAAGAAAGCAUCAGAAGGCACAUAUG [Mod of Disincluded 3 (little more stable fmn state)] (Eterna round: R96, puzzle: Exclusion 1)",
    "Answer label": "y"
  },
  {
    "Sequence code": "UCACGGGAUUGAGGAUAUAUAUUAAUUUUUUUUAUAGAAGGCAAAAUGUUAGAUUAUUCACUAUACAUGAGGAUCACCCAUGUU [JR_ExcBG1_Sub076] (Eterna round: R96, puzzle: Exclusion NG 1)",
    "Answer label": "n"
  },
  {
    "Sequence code": "CCUAUGUGAGGAUAUCACUGGUCUUCUCACUGGAUGAUUAGUGAGAAGGCACAUGAGGAUCACCCAUGUCGGUG [Ex4 - 3 - 51] (Eterna round: R96, puzzle: Exclusion 4)",
    "Answer label": "y"
  },
  {
    "Sequence code": "UAAUAAAGUGUGAGGAUAUGCUGGUCCUUAGAUCAGCAGAAGGCACAUGAGGAUCACCCAUGUAAUAUAUAAAU [Mat - Exclusion 4 - JL Mod - D56] (Eterna round: R96, puzzle: Brourd's mod of Exclusion 4)",
    "Answer label": "n"
  },
  {
    "Sequence code": "AGGUGCUUCUGGAGACAUGAGGAUCACCCAUGUUGAGUUAGCGAGGAUAUCGGUAAGGCAUGUGAUGAGAAGGCGCAAACCGAU [Ex NG3 #49] (Eterna round: R96, puzzle: Exclusion NG 3)",
    "Answer label": "n"
  },
  {
    "Sequence code": "AAGGGUACUUUCAGAACGACAUGAGGAUCACCCAUGUAGACUGAGGAUAUCUGCUACUAAGGACGGGAGAAGGCAGUGUAAUGU [Ex NG3 #74] (Eterna round: R96, puzzle: Exclusion NG 3)",
    "Answer label": "n"
  },
  {
    "Sequence code": "UUAAUUAAUUAAUUAGAUCCUCACAUGAGGAUCACCCAUGUGCAGGAUAUCAGCUCGAUUAGAGCUGAGAAGGGCACUAUUAAU [ExNG3/10-B4] (Eterna round: R96, puzzle: Exclusion NG 3)",
    "Answer label": "y"
  },
  {
    "Sequence code": "CUUAUGUGAGGAUAUGGUGUUGGCCACAGGAAAAAGAUCCUCCAGAAGGCACAUGAGGAUCACCCAUGUAGUGA [Jolly's Folly 30 - Jieux - Exclusion 4] (Eterna round: R96, puzzle: Exclusion 4)",
    "Answer label": "y"
  },
  {
    "Sequence code": "AGAGUAAUGCGAGGAUAUACAUGAGGAUCACCCAUGUGGUGGUGUGAGGCAAAGCCUCACACCAUGUAGAAGGCGCAUUACUCA [Mat - Exclusion NG 2 - Mod of JL - D21] (Eterna round: R96, puzzle: Exclusion NG 2)",
    "Answer label": "n"
  },
  {
    "Sequence code": "AGCUAGUGAGGAUAUACGAACAUGUCAAAAGACUGUAAGGGACAUGAGGAUCACCCAUGUAGAAGGCACUAGCA [Diamond 55] (Eterna round: R96, puzzle: Exclusion 2)",
    "Answer label": "n"
  },
  {
    "Sequence code": "AAGGAUAGAGGAUAUACGUAGAUACAGAUUCAUGUAGAACUACAUGAGGAUCACCCAUGUAGAAGGCUAUCCUA [Fiskers Ex 2 - 6] (Eterna round: R96, puzzle: Exclusion 2)",
    "Answer label": "n"
  }
]

Values were extracted from the supplement of paper PMC9170038.
